assay: soluble on expression in E. coli; label from the status in PepcDB or PDB records
Measured Attribute: soluble on expression in E. coli

Biopolymer Sequence	Endpoint Value
MSLKIKALLLDIDGTMVFKGHAIPGAAEAIEAARMAGLQLRFLTNITGQLPSTIAEDLQRHGINVRAEEIHTASTSCARYLKSLGDVSCFFLMPESVNSMFEGIARDHVSPDVVVIGDIGESFDYACLNQAFGYLHKGARLVVPHKNLFWFDPRGVRLDCGAFILGLEAASGKQALVTGKPSPVFFTSVMDSLGVKPSQTMIIGDDLLTDIAAAQHLEVAHALVLTGKGASYTESDVPRPERLWPSIAELSRFLAQSGHNTEGHHHHHH	soluble
MAGDPMTIYEQHFIFSDRIVPIRVRENKYARRLILRIDARGREICVTTPPAINLYSIQGFIAKHQSWIEARLARVQIAHANSYLKEGTKIPLLGIPHTIQRKEGRGITEIVAGDVRQEPKIVVYGQLEYLPRRIADVLKKQAALIITPLVKCYARKVERKVKSICYKDTKSRWGSCSIHGNLSFSWRLVMAPQEVIEYVVAHEVAHLIEMNHGPKFWALCEKLCPKSEAYRTWLKENGHMLQAVNFHSYRLEILEHHHHHH	soluble

====

experiment: soluble on expression in E. coli; label from the status in PepcDB or PDB records
Measured Attribute: soluble on expression in E. coli

Biopolymer Sequence	Endpoint Value
MSSFGHRAFFSCCLLLEGETLHSIKLRKEATYQPQSGWPVRWPIRYPRALPLASHVHPYHMIVKLPHPRTQPRLFLWLSLHWTGIPFLGKPGIGRNRVKSKQFSHFQQSKIKTTMRKKTTNRKQKAERCQYRLVTA	not soluble
MSLKDYRLFLIDLDGTIYRGKETIESGVRFVKRLDEAGLDYLFLTNNTTRTPQMVADKLAGHGVKTDVSKIYTPSMATASYILEKEAKRPIGVYIIGQIGLWKEILDRPEFYYDEENPDYVIVGMDTDLTYHKLMVATRCIHRGAVFIGTNSDQNLPVGKELRPGNGSICAALEVASGQKPLFIGKPEAIIVNRALDLAGVKAEEALIVGDNYPTDIMAGINSGVDTLLTLTGVTQKADLAGLTPPTYLVNDLDEFSEGHHHHHH	soluble
MNQRKLDHEVKTLQVQAAQFAKQTGQWIGMVENFNQALKEIGDVENWARSIELDMRTIATALEYVYKGQLQSAPS	soluble
MGSDKIHHHHHHMNDYKALRTFLLAAEKRNFAQVARELDMTPAAVTRAIAALEAELGVQLFVRTTRQVSLTTDGAIFAAQLQPAVKTIEDARREVMNAHKADEGRLRISAPTWFGKAVLPPILSAFKERYPKMSFEISLSDGLVNIVDDDYDLAIRISSQPSDKFTIWRKIRVVPRILVAAPGSRFVDMQHPNELTPDDCLAYSGDSRRENWVLSDGGSSITISAGRAFSANNGEVLADIAADGAGVAMLPGFHIFEHLRTGRLVHVFKGWAPPDLWLTLYYPPYQALPPRIASFSKFFEEQVPAHMVMLD	not soluble
GPGSMSNNMLALPKVLLMGLRKSGKSSIQKVVFEGMQPHDSATLATTVQPEKSTVHSNDFVNFEVWDFPGQNDPFDSSNASRYDVNQLLENCGAIVYVLDCRELIDDARARLLDTISAAYRHNPELCVEVFIHKVDALSEDHQADLLASLQRRVEEEAKPLLENVQPLRLNFNLTSIYDHSVFQAFSLVVQKLIKSKTPYITELLQMLNSNSNIDLSYLFLSHSKIYVAVDERNRLKSRTYDLCSDAIEVVVKMSGIYMRQRDGVAGGVKDAFTDSVHSLAASATSRTIISSSLGSADGCASDVSELYRGANAVIQLSNEDCIYVRELPSSLTLVLMMKQTHLENRALIDRNVDIFYKAAFDIFSTSAS	not soluble
MGRLADTLDALSVRALSPDHRIQGQLHHRTKVDISFTSEDSYYEYKSEQAVAAQLSAVLNALIVGRNEGFCAAVREVTDLRLDDRPHWDARRRRFREERDGAPLEGQSAGGWLTVASVGLRDANATVKPGAFDELDASGFLIEVHSAIADLWKDQAMAMSYLRRTHFG	not soluble

## Task Fill in: soluble on expression in E. coli of AHHHHHHGSEFNIIIAGVGGQGGLTLSRIIGSAAMVEGYRVRIGETLGMSQRYGSVLSYLRFGDSVYSPLIEEGKANLMLALEPVEALRNAAFLGKGSYAIVNAYPIHTATTLVGKEKYPSLEEIKEALEKICRVEMMNFQKEADLINPRTTGVLMLGYAQGKGLLPLKKESIIEGIRLTLREKLWEINFKAFERGRELAKHVCCDV is ___
## Result soluble

## Task Fill in: soluble on expression in E. coli of MGSDKIHHHHHHMQNPPPPFNQNHLLAALPPAELERLKPHLELVHMPLGDVLCESGGRLSYVYFPTSAIISLHYILENGSSSEVAGVGNEGLLGISLFMGGENTPTWATVQTAGYCYRLKGPLLLQEFNQGGPLQRVLLRYTQALITQISQTAVCNRHHTIEQQLCRWLLLTLDRLNSQELVMTQELIASMLGVRREGITEAAGKLQQAEIIRYRRGHITVLNRAGLEGHVCECYEVVKKEFERLFRDVKKS is ___
## Result not soluble

## Task Fill in: soluble on expression in E. coli of MGSDKIHHHHHHMEPAGVYAKNVQIDRELSQRLHGALTCGKEELFQVVADPAPDVIRAALRNPAMDENHLLVLLGRRDLGEDLVAAIGRHDAVAESHKLKAALVRNPATPAQLVMSLLPHLYLFELVDLCLLAGVTPDQRVAAERAVIQRLSTTPLGNKITLARRATASILDALLKESDVRVVESCLTNPRLKEGSVFQLVSSSRATGDVIAAVARHQCWSNRPNLKAAMLKNPNTPTSLFSTLLASAPTMEVRNLAASGRLGTERKRLAAQELKRRGC is ___
## Result not soluble

## Task Fill in: soluble on expression in E. coli of MGSDKIHHHHHHMGLAFEHVTLGQRVLFGTGTAAPSLASEVARLGARRVMVITSNRARETAYRIAADVEVALWHHDVAMHVPIETARKARAAAGEHGIDLLVCVGGGSTTGLAKAIAMTLRLPIIAVPTTYAGSEATNVWGLTEASRKTTGVDDAVLPVTVIYDAALTLALPVAMSVASGLNGIAHCIDSMWAPGADPINAALGAEGIRALSHGLPLIAEDPAGTEGREQALYGAYLSAVAFASAGSGLHHKICHVLGGAFNLPHAQVHATVLPYVLAFNAPYASDSEARIAAAFGTADALTGLQELRNRLDAPKALSDYGLTADGAAEAAAVVQPTVPASNPRPVTTENLTRLLQAALSGEDPRCLLEH is ___
## Result not soluble

## Task Fill in: soluble on expression in E. coli of MAHHHHHHMSGSVNRSNSFQKADSMDAKETSTVDRKWVALTAYQPVDVVTKTVEVPVIKTVEKFVPKTIIQEKIIHVPKNVTHIVEKIVEVPEVKYIEKIVEVPHIHYKNKYVPKIEVVEKVVERQKIIEKWHDKIVEVPQIKEVVRFKEIEDAEEVIKYIPRNSKNINWEEEYQKYTQRKGQERYSLDNNAYQQKMSSYNDYNEKAYSQNAYSRSLDFMNKQSSSLNNQSNIRSEDFSQINFFNQYIGSAGASYDKQRNSVPTSSFDARGSLQLKRMPSEEAKPVGCCTSACT is ___
## Result not soluble
